# study_target: Alpha-1D adrenergic receptor (Rattus norvegicus)
# Sequence (P23944 whole entry): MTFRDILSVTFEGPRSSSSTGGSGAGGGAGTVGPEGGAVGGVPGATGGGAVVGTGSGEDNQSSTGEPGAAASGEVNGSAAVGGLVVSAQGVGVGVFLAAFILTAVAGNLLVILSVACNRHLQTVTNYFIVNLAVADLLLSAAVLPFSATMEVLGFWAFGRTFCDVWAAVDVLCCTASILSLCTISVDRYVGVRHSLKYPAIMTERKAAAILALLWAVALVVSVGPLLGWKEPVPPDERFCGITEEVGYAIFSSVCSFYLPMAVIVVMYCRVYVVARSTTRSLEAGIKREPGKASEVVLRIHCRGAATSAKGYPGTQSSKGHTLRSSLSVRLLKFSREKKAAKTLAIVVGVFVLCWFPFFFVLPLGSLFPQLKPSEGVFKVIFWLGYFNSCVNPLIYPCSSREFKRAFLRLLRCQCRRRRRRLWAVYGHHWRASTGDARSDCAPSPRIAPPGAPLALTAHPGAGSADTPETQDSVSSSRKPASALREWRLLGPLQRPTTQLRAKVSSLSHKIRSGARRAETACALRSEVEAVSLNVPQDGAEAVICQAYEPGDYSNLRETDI
# assay_protocol: Antagonist activity at alpha1D-adrenoreceptor in Sprague-Dawley rat thoracic aorta assessed as relaxation of (-)-noradrenaline-induced contractile response
# Assay type: functional
# settings: read-out: pA2 (converted)
measured_parameter: Kb (nM)

Below are worked cases with known answers.
COC(=O)Cc1ccc(OCC(O)CN2CCN(c3cc(C)ccc3C)CC2)cc1 (stereo not given)
44.7
COC(=O)Cc1ccc(OC[C@@H](O)CN2CCN(c3cc(C)ccc3C)CC2)cc1
15.5

I = COC(=O)Cc1ccc(OC[C@H](O)CN2CCN(c3cc(C)ccc3C)CC2)cc1
II = COC(=O)Cc1ccc(OCC(O)CN2CCN(c3ccccc3C)CC2)cc1 (stereo not given)
III = COC(=O)Cc1ccc(OCC(O)CN2CCN(c3ccccc3OC)CC2)cc1 (stereo not given)
Arrange items by their Kb values in increasing order. Labels, requested order.
II, I, III

---

Listing of recorded Activity by entry.
# Tested on: Thoracic aorta
# assay_protocol: Vasodilatory activity in New Zealand White rabbit thoracic aorta assessed as relaxation of (-)-noradrenaline-induced contractile response at 1 uM relative to untreated control
# Assay type: functional, Oryctolagus cuniculus
# Set-up: scale not given: the % may be the effect or the level left
Report the value in % with no unit label.

COC(=O)Cc1ccc(OCC(O)CN2CCN(c3cccc(C)c3C)CC2)cc1 (stereo not given)
43.3
COc1ccccc1N1CCN(CC(O)COc2cccc3ccccc23)CC1 (stereo not given) [NAFTOPIDIL]
86.9
COC(=O)Cc1ccc(OCC(O)CN2CCN(c3cc(C)cc(C)c3)CC2)cc1 (stereo not given)
18.6

Given the entry COC(=O)Cc1ccc(OCC(O)CN2CCN(c3cccc(C)c3)CC2)cc1 (stereo not given) , report its measured Activity.
36.9

Same question for COC(=O)Cc1ccc(OCC(O)CN2CCN(c3ccccc3OC)CC2)cc1 (stereo not given) please.
71.1

---

Each entry below lists one item and its recorded Activity value.
# System: Thoracic aorta
# assay_protocol: Vasodilatory activity in New Zealand White rabbit thoracic aorta assessed as relaxation of (-)-noradrenaline-induced contractile response at 0.1 uM relative to untreated control
# Type: functional, Oryctolagus cuniculus
# Set-up: scale not given: the % may be the effect or the level left
Lab book: enter the figure in %, no units written.

Look over these answered cases.
COC(=O)Cc1ccc(OCC(O)CN2CCN(c3ccc(C)cc3C)CC2)cc1 (stereo not given)
13.7
COC(=O)Cc1ccc(OCC(O)CN2CCN(c3ccc(C)c(C)c3)CC2)cc1 (stereo not given)
8.9
COC(=O)Cc1ccc(OCC(O)CN2CCN(c3cccc(OC)c3)CC2)cc1 (stereo not given)
13

Quick one: Activity of CCOc1cccc(N2CCN(CC(O)COc3ccc(CC(=O)OC)cc3)CC2)c1 (stereo not given) ?
6.1

Similarly, COC(=O)Cc1ccc(OCC(O)CN2CCN(c3cc(C)ccc3C)CC2)cc1 (stereo not given) ?
24.3

Continue with COC(=O)Cc1ccc(OCC(O)CN2CCN(c3cccc(C)c3C)CC2)cc1 (stereo not given)
12.5

Ok, now COC(=O)Cc1ccc(OCC(O)CN2CCN(c3ccccc3C)CC2)cc1 (stereo not given)
27.3

// query: COC(=O)Cc1ccc(OCC(O)CN2CCN(c3ccccc3Cl)CC2)cc1 (stereo not given)
29

Queued: COC(=O)Cc1ccc(OCC(O)CN2CCN(c3ccc(Br)cc3)CC2)cc1 (stereo not given)
7.9

And then COC(=O)Cc1ccc(OCC(O)CN2CCN(c3cccc(C)c3)CC2)cc1 (stereo not given) , what is it?
14.8
